Data origin, for the record: PubChem BioAssay (NCI)

Give growth inhibition for every item shown.
# Measurement Description: NCI Yeast Anticancer Drug Screen. Data for the sgs1 mgt1 strain (AID 161);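 note: 0% = growth of cultures given vehicle only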
# Run Parameters: S. cerevisiae sgs1 mgt1 strain, at 50.0 µM, stronger effect = higher value
Compounds without any hit were thinned out: in the full panel of roughly 79,000, 15% have a hit.
# value in %; strip the unit string

# growth inhibition lookup, item O=S(=O)(O)C(Nc1ccccc1)c1ccccc1 (stereo unspecified) 9.5

# growth inhibition lookup, item Nc1ccc(C(=O)c2ccc(N)c(Br)c2)cc1Br 6.6

# growth inhibition lookup, item COc1ccc(C(O)c2ccccc2)cc1 (stereo unspecified) -34.9

# growth inhibition lookup, item Cc1ccc(C(O)C2CC2)cc1 (stereo unspecified) -23.1

# growth inhibition lookup, item COc1ccccc1NC(=O)C1=C(C)NC(C)=C(C(=O)Nc2ccccc2OC)C1c1cccc([N+](=O)[O-])c1 -8.05

# growth inhibition lookup, item OC1OC(COC(c2ccccc2)(c2ccccc2)c2ccccc2)C(O)C(O)C1O (stereo unspecified) -16.6

# growth inhibition lookup, item CCn1c(=O)n(C)c2c(=O)n(C)c(=O)n(C)c21 -13.3

# growth inhibition lookup, item C#CC(C(C)C)N(CCO)CCCC (stereo unspecified) 8.3

# growth inhibition lookup, item Cc1nc2ccccc2c(C(=O)O)c1O 1.5

# growth inhibition lookup, item CC(C)=NNC(N)=S -23.9

# growth inhibition lookup, item COC(=O)C(C)Oc1ccc(OC#N)cc1 (stereo unspecified) 8.9

# growth inhibition lookup, item CN1C(=O)CN2CCc3ccccc3C2c2cc(Cl)ccc21 (stereo unspecified) 47.6

# growth inhibition lookup, item COc1cc(C2NC(=O)C(C#N)=C(Nc3cccc(C)c3)S2)ccc1O (stereo unspecified) 13.4

# growth inhibition lookup, item C=CCNc1nnc(C)s1 -21.6

# growth inhibition lookup, item COc1ncnc2c1cnn2C 13.3

# growth inhibition lookup, item O=C1c2ccccc2C(=O)c2c1ccc(C(=O)O)c2[N+](=O)[O-] 32.2

# growth inhibition lookup, item CC(=O)OCC1OC(OC2=C(CC=C(C)C)C(=O)c3ccccc3C2=O)C(OC(C)=O)C(OC(C)=O)C1OC(C)=O (stereo unspecified) -17.4

# growth inhibition lookup, item CC(=O)Nc1cccc(Cl)c1C 1.35

# growth inhibition lookup, item C/C(=C\c1ccc([N+](=O)[O-])cc1)C(=O)O 19.2

# growth inhibition lookup, item CCCCCCCCCCCCCC(=O)Oc1ccc[nH]c1=O -15.9

# growth inhibition lookup, item S=C1NCc2cncnc2N1 -6.9

# growth inhibition lookup, item Cc1ccc(O)c(C(=O)c2ccccc2)c1 12.5

# growth inhibition lookup, item Cc1nc2c(ccc3ccccc32)s1 22.7

# growth inhibition lookup, item CC(=O)OCC(=O)[C@@]1(O)CC[C@H]2[C@@H]3CC[C@@H]4C[C@H](O)CC[C@]4(C)[C@H]3C(=O)C[C@@]21C 25.4

# growth inhibition lookup, item CC(=O)c1sc2c(c1OC(=O)c1ccc(Cl)cc1Cl)c(=O)n(-c1ccccc1)c(=S)n2-c1ccccc1 -19.4

# growth inhibition lookup, item Cc1cc(=O)n(-c2ccc(F)cc2)[nH]1 22.1

# growth inhibition lookup, item O=C1N(C[P+](c2ccccc2)(c2ccccc2)c2ccccc2)CCCN1C[P+](c1ccccc1)(c1ccccc1)c1ccccc1 3.55

# growth inhibition lookup, item CC1OC(Oc2c(-c3ccc(O)c(O)c3)oc3cc(O)cc(O)c3c2=O)C(O)C(O)C1O (stereo unspecified) 14.2

# growth inhibition lookup, item O=[N+]([O-])c1ccc(N=Nc2ccc(O)c3ccccc23)cc1 21.9

# growth inhibition lookup, item COc1cc(-c2ccc(NC(=O)NC3CC3)c(OC)c2)ccc1NC(=O)NC1CC1 -24.1

# growth inhibition lookup, item O=C1C=C(Nc2ccc([N+](=O)[O-])cc2)c2ccccc2C1=O -1.3

# growth inhibition lookup, item CCC/C=C(\C)C(C)(C#N)C(=O)OCC (stereo unspecified) 10.8

# growth inhibition lookup, item C/C=C/CC(C)C(O)C1C(=O)NC(CC)C(=O)N(C)CC(=O)N(C)C(CC(C)C)C(=O)NC(C(C)C)C(=O)N(C)C(CC(C)C)C(=O)NC(C)C(=O)NC(C)C(=O)N(C)C(CC(C)C)C(=O)N(C)C(CC(C)C)C(=O)N(C)C(C(C)C)C(=O)N1C (stereo unspecified) -5.45

# growth inhibition lookup, item O=C(N/N=C/c1ccccc1O)Nc1nn[nH]n1 16.1

# growth inhibition lookup, item CCOC(=O)C1=C(Nc2ccc(Br)cc2)C(=O)N(CC)C1 33

# growth inhibition lookup, item COc1cc2nn(-c3ccccc3N)nc2cc1OC 48.2
